Biological target: nicotinic receptors containing the α7 subunit (Rattus norvegicus)
Construct: displace the [^3H]-MLA bond on the rat hippocampus membranes
Sequence (Q05941 23-502): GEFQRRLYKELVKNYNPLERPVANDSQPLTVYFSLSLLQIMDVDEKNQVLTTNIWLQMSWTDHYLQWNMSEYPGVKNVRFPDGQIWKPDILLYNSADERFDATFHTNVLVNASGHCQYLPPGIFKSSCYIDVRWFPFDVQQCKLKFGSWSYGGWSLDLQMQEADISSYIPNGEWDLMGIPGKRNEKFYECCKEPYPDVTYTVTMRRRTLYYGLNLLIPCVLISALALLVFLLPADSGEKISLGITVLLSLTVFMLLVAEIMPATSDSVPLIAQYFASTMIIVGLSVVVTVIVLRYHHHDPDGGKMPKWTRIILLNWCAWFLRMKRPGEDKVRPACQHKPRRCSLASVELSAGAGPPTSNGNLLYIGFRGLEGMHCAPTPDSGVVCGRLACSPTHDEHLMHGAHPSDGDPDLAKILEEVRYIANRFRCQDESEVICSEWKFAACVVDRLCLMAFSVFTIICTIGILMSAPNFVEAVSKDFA
Assay: binding to nicotinic receptors containing the α7 subunit, competition versus [3H]-methyllycaconitine on rat hippocampus membranes
Conditions: apparent affinity constant by Cheng and Prusoff, displacement of 5 nM [3H]-MLA, 2 hours at about 20° C.
ENDPOINT: Ki (nM)

[
  {
    "COMPOUND": "CCN(CC)CCCNc1nnc(-c2cn(-c3ccccc3)c3ccccc23)c(=O)[nH]1 [Compound No. 11]",
    "RECORDED_NUMBER": 737
  },
  {
    "COMPOUND": "CCN(CC)CCCNc1nnc(-c2csc3ccccc23)c(=O)[nH]1 [Compound No. 12]",
    "RECORDED_NUMBER": 957
  }
]
